tested on: SF-295; assay: NCI tumour cell line growth inhibition, 48 h
Activity calls are given as the source filed them. Rule as the data show it: active = GI50 up to about 1.1 µM and inactive = higher.
// values below are reported GI50

See these solved cases before continuing.
>  <Molecule>
COc1ccc(-c2c(C#N)c(NC(=S)NC(=O)c3ccccc3)nc3c2CCCC3)cc1OC

>  <GI50>
56.6 µM (inactive)

$$$$
>  <Molecule>
COC1C2c3ccccc3C(C#N)(Cc3ccc4c(c32)OCO4)N1C(=O)c1ccccc1 (stereo not given)

>  <GI50>
> 100 µM (inactive)

$$$$
>  <Molecule>
COCCOCOC(C)(C)[C@H](CCO)O[Si](c1ccccc1)(c1ccccc1)C(C)(C)C

>  <GI50>
5.74 µM (inactive)

$$$$
>  <Molecule>
O=[N+]([O-])c1ccc2c(c1)Sc1ccccc1N2CCCCCl

>  <GI50>
> 100 µM (inactive)

$$$$
>  <Molecule>
COc1ccc(/C=C2\CN(C)CC3C2=NC(=S)NC3c2ccc(OC)cc2)cc1 (stereo not given)

>  <GI50>
3.69 µM (inactive)

$$$$
>  <Molecule>
CC(=O)Oc1ccc2c(c1)[nH]c1c3ccc(OC(C)=O)cc3oc(=O)c21

>  <GI50>
44.1 µM (inactive)

$$$$

For SF-295, give the measured GI50 of the entry CC1CN=C(Nc2cccc(F)c2)S1 (stereo not given)
> 100 µM (inactive)

For SF-295, give the measured GI50 of the entry O=c1[nH][nH]c(=O)c2c1ccc1oc3ccccc3c12
> 100 µM (inactive)

For SF-295, give the measured GI50 of the entry N/C(=N\N=C\c1nc2ccccc2o1)c1cnccn1
87.9 µM (inactive)

For SF-295, give the measured GI50 of the entry O=C(Nc1ccc(Cl)c(Cl)c1)C(=O)C(C(=O)c1ccccc1-c1ccccc1)C1OC(=O)c2ccccc21 (stereo not given)
17.1 µM (inactive)

----------
system: NCI-H23; assay: NCI tumour cell line growth inhibition, 48 h
The source made the active and inactive calls. Cut-off read from the data, not from the text of the source: active = GI50 up to about 1.1 µM and inactive = higher.
Property name: GI50

See these solved cases before continuing.
>  <Compound>
Cc1ccccc1Nc1cn(CCOc2ccccc2)c(=O)n(CCOc2ccccc2)c1=O

>  <Value reported>
> 100 µM (inactive)

$$$$
>  <Compound>
CC1CN=C(Nc2cccc(F)c2)S1 (stereo not given)

>  <Value reported>
> 100 µM (inactive)

$$$$
>  <Compound>
CCCCN(CCCC)c1ccc(/N=N/c2ccc(S(=O)(=O)O)cc2)cc1

>  <Value reported>
20.6 µM (inactive)

$$$$
>  <Compound>
O=C(Nc1ccc(Cl)c(Cl)c1)C(=O)C(C(=O)c1ccccc1-c1ccccc1)C1OC(=O)c2ccccc21 (stereo not given)

>  <Value reported>
10.6 µM (inactive)

$$$$

For the compound Cc1ccc(/C=C/C(=O)c2sc(-c3nc(C)c(C(=O)/C=C/c4ccc(C)cc4)s3)nc2C)cc1 , give its measured GI50 value.
> 100 µM (inactive)

----------
tested on: PC-3; assay: NCI tumour cell line growth inhibition, 48 h
The source made the active and inactive calls. Rule as the data show it: active = GI50 up to about 1.1 µM and inactive = higher.
Property name: GI50

See these solved cases before continuing.
>  <Molecule>
Clc1ccc(/C=N/Nc2nnc3c4ccccc4c4ncccc4c3n2)cc1

>  <Value reported>
> 10 µM (inactive)

$$$$
>  <Molecule>
Clc1ccc(NCc2nnc(CCCCCCCCc3nnc(CNc4ccc(Cl)cc4)o3)o2)cc1

>  <Value reported>
> 100 µM (inactive)

$$$$
>  <Molecule>
COc1ccc(-c2c(C#N)c(NC(=S)NC(=O)c3ccccc3)nc3c2CCCC3)cc1OC

>  <Value reported>
46.2 µM (inactive)

$$$$
>  <Molecule>
Nc1ccc(-c2nc3ccc(F)cc3s2)cc1I

>  <Value reported>
> 100 µM (inactive)

$$$$
>  <Molecule>
CC1=C(C(=O)Nc2ccc(Cl)c(C(=O)OC(C)C)c2)SCCO1

>  <Value reported>
> 100 µM (inactive)

$$$$

For PC-3, give the measured GI50 of the entry N/C(=N\N=C\c1nc2ccccc2o1)c1cnccn1
> 100 µM (inactive)

For PC-3, give the measured GI50 of the entry CC[C@]12C=CCN3CC[C@@]4(c5cc(N=O)c(OC)cc5N(C)[C@H]4[C@@](O)(C(=O)NC(Cc4c[nH]c5ccccc45)C(=O)OC)[C@@H]1O)[C@@H]32 (stereo not given in full)
11.5 µM (inactive)

For PC-3, give the measured GI50 of the entry O=S(=O)(O)c1ccc(O)c2ncc(Cl)cc12
> 100 µM (inactive)

For PC-3, give the measured GI50 of the entry COC1(OC)CCc2c(sc3ncnc(Nc4cccc(Br)c4)c23)C1
43.3 µM (inactive)

The reported measurements were obtained from ChEMBL document CHEMBL1201862.
